All figures here come from PubChem BioAssay (NCI).

EXPERIMENTAL DETAILS: NCI Yeast Anticancer Drug Screen. Data for the mec2-1 strain (AID 157)
TEST SETTINGS: S. cerevisiae mec2-1 strain, at 5.0 µM (retest, dose inferred, filed as 0.5), active compounds read high
Compounds without any hit were thinned out: in the full panel of roughly 79,000, 15% have a hit.
Consider the following compounds; for each one, report its growth inhibition.
Kindly answer with a numeric value in %, unit omitted.

growth inhibition reported for this compound C/C(=C\c1ccccc1)c1ccncc1 : 14

growth inhibition reported for this compound O=C1C=CC(=O)c2c(O)c(N3CCN(CCO)CC3)c(Cl)c(O)c21 : 33

growth inhibition reported for this compound O=C(O)C(CS)Nc1c2ccccc2nc2ccccc12 (centres undefined) : 10

growth inhibition reported for this compound COc1ccc(C2C3=C(CCC(CN(C)C)C3=O)OC3=C2C(=O)C(CN(C)C)CC3)cc1 (centres undefined) : -3

growth inhibition reported for this compound CCC1CCC(CC)C1=O (centres undefined) : -2

growth inhibition reported for this compound CN(C)c1ccc(C2C=C(c3ccccc3)Oc3ccccc32)cc1 (centres undefined) : 94

growth inhibition reported for this compound CCCCCC(=O)/C=C/c1ccc(C)cc1 : -47

growth inhibition reported for this compound O=C1C=CC(=Nc2cc3c(cc2Br)-c2ccccc2C3Br)O1 (centres undefined) : 20

growth inhibition reported for this compound O=C1NC(=O)N(c2ccc([N+](=O)[O-])cc2)C1=O : 8

growth inhibition reported for this compound O=c1c(S(=O)(=O)Oc2ccccc2)coc2cc(F)ccc12 : 99

growth inhibition reported for this compound CCOC(=O)C(=CNC(=S)Nc1c(CC)cccc1C(C)(C)C)C(=O)OCC : -13

growth inhibition reported for this compound CCN(CC)c1ccc(N=Nc2ccc(-c3nc4cccn(C)c-4n3)cc2)cc1 : -5

growth inhibition reported for this compound CC1CC(C)CC(NC2=NCCO2)C1 (centres undefined) : 6

growth inhibition reported for this compound CCCCC(=O)N/N=C/c1ccc([N+](=O)[O-])s1 : 7

growth inhibition reported for this compound CCCOc1ccc(-c2nc(-c3ccc(N=Cc4ccc(N(CCOS(C)(=O)=O)CCOS(C)(=O)=O)cc4C)cc3)cs2)cc1 : 7

growth inhibition reported for this compound C/C=C/CC(C/C=C/C)C1CC[N-]CC1.C/C=C/CC(C/C=C/C)C1CC[N-]CC1.[Cl][Pt+2]([Cl])([Cl])[Cl] : -62

growth inhibition reported for this compound C/C=c1/[nH]c(=O)/c(=C\c2ccccc2)[nH]c1=O : 2

growth inhibition reported for this compound OC(c1cc2ccccc2o1)c1cc2ccccc2s1 (centres undefined) : -11

growth inhibition reported for this compound NC(=O)c1nnn(Cc2cc(Cl)c(C(=O)c3ccc(Cl)cc3)c(Cl)c2)c1N : 3

growth inhibition reported for this compound CC(=O)Oc1cc2c(cc1OC(C)=O)OCC(c1ccccc1)C2 (centres undefined) : 5

growth inhibition reported for this compound O=C(Nc1ccccc1)OCCc1ccc(Br)cc1 : -23

growth inhibition reported for this compound CCN(CC)CCOC(=O)C1C(c2ccccc2)C1(c1ccccc1)c1ccccc1 (centres undefined) : 4

growth inhibition reported for this compound CCOC(=O)C(C(=O)OCC)C1(c2ccccc2)OC(=O)c2ccccc21 (centres undefined) : 13

growth inhibition reported for this compound CCOC(=O)c1c(C)[nH]c(CO)c1C : 6

growth inhibition reported for this compound Cc1cc(Br)c(N2C3=C(CC4=C2CCCC4=O)C(=O)CCC3)c(Br)c1 : 7

growth inhibition reported for this compound C#CC(NCCC(C)CC(C)(C)C)C(C)C (centres undefined) : 2

growth inhibition reported for this compound CCOc1ccc2c(c1)[n+]([O-])c(-c1ccc(Cl)cc1)c(N)[n+]2[O-] : 23

growth inhibition reported for this compound O=C1C=CC(=O)c2c1oc1ccccc21 : 6

growth inhibition reported for this compound O=C(Nc1ccccc1)c1ccc(Cl)cc1Cl : -9

growth inhibition reported for this compound CCC(CC)(C(=O)Nc1ccc2c(c1)c(=O)c1ccccc1n2C)C(=O)Nc1ccc2c(c1)c(=O)c1ccccc1n2C : -3

growth inhibition reported for this compound CN(Cc1cnc2nc(N)nc(N)c2n1)c1ccc(C(=O)NC(CCC(=O)O)C(=O)O)cc1 (centres undefined) : -16

growth inhibition reported for this compound O=C(CBr)c1ccc2cc(Br)c3ccccc3c2c1 : 84

growth inhibition reported for this compound Cc1ccc(NS(=O)(=O)c2ccc(C)cc2)cc1 : -8

growth inhibition reported for this compound Cc1ccc(C(=Nc2ccccc2)N=P(c2ccccc2)(c2ccccc2)c2ccccc2)cc1 : 45

growth inhibition reported for this compound COc1cc(/C=C2/SC(=S)NC2=O)cc(OC)c1O : 3

growth inhibition reported for this compound C[C@H](CCC(=O)O)[C@H]1CC[C@H]2[C@@H]3[C@@H](O)C[C@@H]4C[C@H](O)CC[C@]4(C)[C@H]3CC[C@]12C : 7

growth inhibition reported for this compound CC[N+]1(C)CCC(O)(/C=C/c2ccccc2)C(C(=O)/C=C/c2ccccc2)C1 (centres undefined) : 11

growth inhibition reported for this compound C=C/C=C/CC=C : -48

growth inhibition reported for this compound CC(=O)c1ccc(OCc2ccccc2)cc1 : 1
